Where these numbers come from: PubChem BioAssay

Assay: S. cerevisiae growth modulation with rapamycin, primary screen, strain BY4716, OD600, 96 h (AID 1091); also: test concentration not given here
Conditions: called active from +8 up or from −8 down
Active and inactive are the calls of the source.
Outcome (select one): label 1 = active, label 0 = inactive

Below, 3 molecules whose answers are already recorded.
Prompt: Dear all, I need the recorded test outcome for "O=C(NCCN1CCOCC1)[C@@H]1c2ccccc2C(=O)N(Cc2ccccc2)[C@H]1c1ccc(CO)cc1" , thank you.
Completion: label 0

Prompt: Moving on to the next molecule: "C=CCNC(=O)[C@@H]1[C@H]2C(=O)O[C@H](c3ccccc3)[C@H](c3ccccc3)N2[C@H](c2ccc(O)cc2)[C@@]12C(=O)N(C(=O)OCCOC)c1ccc(C#CCCO)cc12"
Completion: label 0

Prompt: And what about the molecule COc1cc(NN2C(C(O)c3ccc(I)cc3)C=CC3C(=O)N(c4ccccc4)C(=O)C32)cc(OC)c1OC (stereo unspecified) ?
Completion: label 0

---
Prompt: Tell me the assay call for "CCc1cccc(NC(=O)O[C@H]2[C@H](OC(=O)Nc3ccccc3)[C@H](OC(=O)Nc3ccccc3)[C@@H](OC)O[C@@H]2CO)c1" please.
Completion: label 1

Prompt: // query: "CCOC(=O)C1=C[C@@H](C(C)(C)C)N(S(=O)(=O)c2ccc(C)cc2)[C@H]1c1ccc(C)cc1"
Completion: label 0

Prompt: Same lookup for "NCCCCCNC(=O)[C@@H]1C[C@@H]2C(=O)N3CCC[C@H]3C(=O)N2[C@@H]1c1ccc(O)cc1" , please.
Completion: label 0

Prompt: Moving on to "CCCCC(=C=CC[C@H](O)c1ccc(OCCO)cc1)C[C@H](O)c1cc(Cl)cc(Cl)c1O"
Completion: label 0

----------
Tested on: Sam68 (KHDRBS1)
Experiment: Sam68 small-molecule binders, primary screen, biochemical, small-molecule microarray, 635 nm fluorescence (AID 1125);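 also: score merges 667 nm channel intensity with signal to noise over triplicate slides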
Details: small-molecule microarray binding, higher = more signal
parameter: composite z-score
Give only the figure.

Consider the worked cases shown below.
Prompt: Lab note: need composite z-score with Sam68 (KHDRBS1) for entry "O=C1C[C@@](C(=O)NCc2ccccc2)(c2ccc([N+](=O)[O-])cc2)[C@@H](c2ccc(CO)cc2I)N1CC12CC3CC(CC(C3)C1)C2" , please look it up.
Completion: 1.21

Prompt: Same for "CCOC(=O)C[C@H]1[C@H](OC(=O)c2ccc(C(=O)c3ccccc3)cc2)[C@@H](NC(=O)CC(C)C)c2cc(OCCCO)ccc2N1C(=O)Cc1ccc(OC)cc1"
Completion: 0.698

Prompt: // next record COc1cc(NN2C(C(O)C3CCCCC3)C=CC3C(=O)N(c4ccccc4)C(=O)C32)cc(OC)c1OC (stereo not given)
Completion: 1.3

Others:
Prompt: Observed composite z-score on Sam68 (KHDRBS1) for "CC(=O)NCCCC[C@@H]1NC(=O)[C@@H]2C[C@H](C(=O)NCCCCCCN)[C@H](c3cccc(OCCO)c3)N2C1=O" , please.
Completion: 1.12

Prompt: How about this molecule: "CCOC(=O)C1=C[C@@H](C(C)(C)C)N(S(=O)(=O)c2ccc(C)cc2)[C@H]1c1ccc(C)cc1"
Completion: 1.29

Prompt: Same question, "COC(=O)c1c2oc(c1C(=O)OC)C(=O)N1CCC[C@H]1Cn1nncc1CN(Cc1ccccc1)C(=O)N[C@H](CO)CC2" this time
Completion: 0.626

Prompt: How about this molecule: COC(=O)C1=CC(CCCO)=CC(C)N(Cc2cccc(OC(F)(F)F)c2)C=C1C(=O)OC (stereo not given)
Completion: 1.27

Prompt: Now try CC1CC/C=C\[C@H]2OC34C=CCN(C(C)(C)C)C(=O)[C@H]3N(C(CO)C(C)C)C(=O)[C@@H]4C2C(=O)O1 (stereo not given in full) .
Completion: 0.117
